Entry source: patent US20150196651A1

TARGET UNDER TEST: T1, human PrRP receptor GPR10 (human, UniProt P49683 1-370)
T1 construct: whole, on cells; also called GPR10 human receptor transfected in CHO cells; human GPR10 receptor
T1 sequence (looked up): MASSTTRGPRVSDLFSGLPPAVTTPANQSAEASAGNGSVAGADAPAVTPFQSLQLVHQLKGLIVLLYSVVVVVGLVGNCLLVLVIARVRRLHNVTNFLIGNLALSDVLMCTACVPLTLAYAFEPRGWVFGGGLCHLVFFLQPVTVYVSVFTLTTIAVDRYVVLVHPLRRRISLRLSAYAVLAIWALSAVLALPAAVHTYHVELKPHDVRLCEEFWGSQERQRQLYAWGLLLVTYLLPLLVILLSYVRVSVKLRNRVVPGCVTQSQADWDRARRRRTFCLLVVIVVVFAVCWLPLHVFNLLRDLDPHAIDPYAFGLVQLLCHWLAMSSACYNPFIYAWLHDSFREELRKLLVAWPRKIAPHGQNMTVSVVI
ASSAY SUMMARY: competition with 125I-human PrRP31, CHO cells with human GPR10
Square brackets hold non-standard residues; d marks the D form. Ends that are not written are not given here. * marks the point of attachment. Phe(F5) = N[C@@H](Cc1c(F)c(F)c(F)c(F)c1F)C(=O)O; 1Nal = N[C@@H](Cc1cccc2ccccc12)C(=O)O; Palmitoyl = CCCCCCCCCCCCCCCC(=O)*; Myristoyl = CCCCCCCCCCCCCC(=O)*; PheCl2 = dichlorophenylalanine; PheNO2 = nitrophenylalanine; Nle = CCCC[C@H](N)C(=O)O
Lab note: compare Ki with 4 nM, writing Condition met if less and Condition not met if equal or more.

Could you please tell me whether Ki recorded for SETHRHSMEIKTPDINPAWYASRGIRPVGRF (K(N-POE(N-palm)) at residue 11; C-terminal amide) [analog no. 58] is less than 4 nM?
Condition met

Next: SRTHRHSMEIKTPDINPAWYASRGIRPVGRF-NH2 (not fully specified (residue 11)) [analog no. 57]
Condition met

Next: Palmitoyl-SRAHQHS[Nle]ETRTPDINPAWYTGRGIRPVGR[Phe(F5)]-NH2 [analog no. 22]
Condition met

Next: SRTHRHSMEIK(Palmitoyl)TPDINPAWYASRGIRPVGRF-NH2 [analog no. 48]
Condition not met

Next: Myristoyl-SRAHQHS[Nle]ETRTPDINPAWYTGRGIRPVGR[1Nal]-NH2 [analog no. 11]
Condition met

Next: Myristoyl-SRAHQHS[Nle]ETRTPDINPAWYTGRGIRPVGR[PheCl2]-NH2 [analog no. 14]
Condition met

Next: TPDINPAWYTGRGARPFGRF-NH2 [analog no. 31]
Condition not met

Next: Myristoyl-SRAHQHS[Nle]ETRTPDINPAWYTGRGIRPVGRF-NH2 [analog no. 7]
Condition met

Next: SRTHRHSMEIKTPDINPAWYASRGIRPVGRF ((N-palm(N-POE)) at the N-terminus; K(N-palm(N-POE)) at residue 11; C-terminal amide) [analog no. 59]
Condition not met

Next: SRAHQHS[Nle]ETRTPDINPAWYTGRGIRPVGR[PheCl2]-NH2 [analog no. 13]
Condition met

Next: SRAHQHS[Nle]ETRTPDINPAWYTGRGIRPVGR[PheNO2]-NH2 [analog no. 16]
Condition not met
